System: HL-60
Test: Cytotoxicity against human HL60 cells after 48 hrs by MTT assay
Format: functional, cell-based
Conditions: HL-60, 48 h
pIC50 for assorted compounds
Just the number, please; pIC50 means minus log10 of the concentration in mol/L.

Worked cases, answers included:
compound	pIC50
CC(C)C(=O)c1cc([C@@H]2CC[C@]3(C)C4=CCC5C(C)(C)[C@H](O)CC[C@]5(C)[C@H]4CC[C@@]23C)c[nH]1 (stereo partly drawn) [LAXIRACEMOSIN A]	5.51
C=C(C)C(=O)c1cc([C@@H]2CC[C@]3(C)C4=CCC5C(C)(C)[C@H](O)CC[C@]5(C)[C@H]4CC[C@@]23C)c[nH]1 (stereo partly drawn) [LAXIRACEMOSIN E]	5.82
CC(C)(O)C(=O)c1cc([C@@H]2CC[C@]3(C)C4=CCC5C(C)(C)[C@H](O)CC[C@]5(C)[C@H]4CC[C@@]23C)c[nH]1 (stereo partly drawn) [LAXIRACEMOSIN D]	5.17
CC1(C)C2CC=C3[C@H](CC[C@@]4(C)[C@H](c5c[nH]c(C=O)c5)CC[C@]34C)[C@@]2(C)CC[C@H]1O (stereo partly drawn) [LAXIRACEMOSIN F]	4.80

Kindly consider the entry below.
Q: Would you mind telling me what pIC50 value was observed for CC(C)C(=O)c1cc([C@@H]2CC[C@]3(C)C4=CCC5C(C)(C)C(=O)CC[C@]5(C)[C@H]4CC[C@@]23C)c[nH]1 (stereo partly drawn) [LAXIRACEMOSIN B] ?
Ans: 4.89

###

System: MCF7
Assay: Cytotoxicity against human MCF7 cells after 48 hrs by MTT assay
Format: functional, cell-based
Conditions: MCF7, 48 h
pIC50 for assorted molecules
Just the number, please; pIC50 means minus log10 of the concentration in mol/L.

molecule	pIC50
C=C(C)C(=O)c1cc([C@@H]2CC[C@]3(C)C4=CCC5C(C)(C)[C@H](O)CC[C@]5(C)[C@H]4CC[C@@]23C)c[nH]1 (stereo partly drawn) [LAXIRACEMOSIN E]	5.29

Q: # get_value(readout= pIC50, system= MCF7) for CC(C)C(=O)c1cc([C@@H]2CC[C@]3(C)C4=CCC5C(C)(C)[C@H](O)CC[C@]5(C)[C@H]4CC[C@@]23C)c[nH]1 (stereo partly drawn) [LAXIRACEMOSIN A]
Ans: 4.77

###

IC50 for assorted compounds
Tested on: A549
Experiment: Cytotoxicity against human A549 cells after 48 hrs by MTT assay
Assay type: functional, cell-based
Details: A549, 48 h
Record the value in µM, omitting the unit from your answer.

Worked cases, answers included:
compound	measurementUnit	IC50
C=C(C)C(=O)c1cc([C@@H]2CC[C@]3(C)C4=CCC5C(C)(C)[C@H](O)CC[C@]5(C)[C@H]4CC[C@@]23C)c[nH]1 (stereo partly drawn) [LAXIRACEMOSIN E]	µM	3.7
CC(C)C(=O)c1cc([C@@H]2CC[C@]3(C)C4=CCC5C(C)(C)[C@H](O)CC[C@]5(C)[C@H]4CC[C@@]23C)c[nH]1 (stereo partly drawn) [LAXIRACEMOSIN A]	µM	5.4

Kindly consider the entry below.
Q: Would you mind telling me what IC50 value was observed for CC(C)C(=O)c1cc([C@@H]2CC[C@]3(C)C4=CCC5C(C)(C)C(=O)CC[C@]5(C)[C@H]4CC[C@@]23C)c[nH]1 (stereo partly drawn) [LAXIRACEMOSIN B] ?
Ans: 13.4

###

Tested on: MCF7
Assay: Cytotoxicity against human MCF7 cells after 48 hrs by MTT assay
Type: functional, cell-based
Settings: MCF7, 48 h
IC50 for assorted compounds

Worked cases, answers included:
compound	IC50
CC(C)C(=O)c1cc([C@@H]2CC[C@]3(C)C4=CCC5C(C)(C)C(=O)CC[C@]5(C)[C@H]4CC[C@@]23C)c[nH]1 (stereo partly drawn) [LAXIRACEMOSIN B]	> 20 µM
CC1(C)C2CC=C3[C@H](CC[C@@]4(C)[C@H](c5c[nH]c(C=O)c5)CC[C@]34C)[C@@]2(C)CC[C@H]1O (stereo partly drawn) [LAXIRACEMOSIN F]	> 20 µM

Q: Would you mind telling me what IC50 value was observed for CC(C)(O)C(=O)c1cc([C@@H]2CC[C@]3(C)C4=CCC5C(C)(C)[C@H](O)CC[C@]5(C)[C@H]4CC[C@@]23C)c[nH]1 (stereo partly drawn) [LAXIRACEMOSIN D] ?
Ans: > 20 µM
